Biological target: glutathione-S-transferase (GST) tagged LXRalpha LBD (ligand binding domain) (Homo sapiens, UniProt Q13133)
Construct: purchased Invitrogen pv4655
Sequence (Q13133 209-447 limits assumed): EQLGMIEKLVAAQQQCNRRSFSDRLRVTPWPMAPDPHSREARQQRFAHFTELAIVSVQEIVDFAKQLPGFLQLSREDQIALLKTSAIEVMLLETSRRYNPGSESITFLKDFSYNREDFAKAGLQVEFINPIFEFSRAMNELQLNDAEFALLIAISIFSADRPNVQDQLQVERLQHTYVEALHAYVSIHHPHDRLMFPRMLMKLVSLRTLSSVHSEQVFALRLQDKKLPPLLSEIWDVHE
Assay: LanthaScreen TR-FRET Liver X Receptor Coactivator Assay, LXR alpha
Format: biochemical
Settings: efficacy (Emax) in relation to reference dual agonist T0901317; read-out: LXR alpha actiivty at max dose (%)
I'd appreciate it if you marked entries MET when Emax is lower than 10% and NOT MET when it is not.

[[record]]
molecule = "COc1cccc(C(O)(C(=O)N2CCC(CCCCCc3ccc(C(=O)N(C)C)c(Cl)c3)CC2)C(F)(F)F)c1 (single isomer, unassigned)"
class_assignment = "NOT MET"

[[record]]
molecule = "CNC(=O)c1ccc(NCCCCC2CCN(C(=O)C(O)(c3cccc(OC(F)(F)F)c3)C(F)(F)F)CC2)cc1Cl (single isomer, unassigned)"
class_assignment = "NOT MET"

[[record]]
molecule = "CNC(=O)c1ccc(NCCCCC2CCN(C(=O)C3(c4ccccc4)CCCC3)CC2)cc1Cl"
class_assignment = "MET"

[[record]]
molecule = "CN(C)C(=O)c1ccc(NCCC[C@H]2CC23CCN(C(=O)[C@@](O)(c2ccccc2)C(F)(F)C(F)(F)F)CC3)cc1Cl (single isomer, unassigned)"
class_assignment = "MET"

[[record]]
molecule = "CN(C)C(=O)c1ccc(NCCC[C@H]2CC23CCN(C(=O)[C@](O)(c2ccccc2)C(F)(F)F)CC3)nc1Cl (single isomer, unassigned)"
class_assignment = "NOT MET"

[[record]]
molecule = "CN(C)C(=O)c1ccc(SC2CCC3(CC2)CCN(C(=O)C(O)(c2cc(Cl)cc(Cl)c2)C(F)(F)F)CC3)cc1Cl (single isomer, unassigned)"
class_assignment = "MET"


Origin of values: patent US10894775B2
